The following molecules have recorded IC50 on Procathepsin L (Homo sapiens).
Sequence (P07711 whole entry): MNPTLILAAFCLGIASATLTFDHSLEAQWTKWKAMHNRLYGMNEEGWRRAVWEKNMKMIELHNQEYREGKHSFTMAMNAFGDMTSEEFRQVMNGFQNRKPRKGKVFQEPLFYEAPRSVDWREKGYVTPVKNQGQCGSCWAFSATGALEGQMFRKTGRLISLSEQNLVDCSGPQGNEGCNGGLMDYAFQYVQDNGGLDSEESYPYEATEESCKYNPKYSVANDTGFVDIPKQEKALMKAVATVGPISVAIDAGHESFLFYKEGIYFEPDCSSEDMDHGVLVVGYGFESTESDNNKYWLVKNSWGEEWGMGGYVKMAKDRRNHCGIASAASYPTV

| MOLECULE | IC50 |
| --- | --- |
| N#CC1(NC(=O)[C@H](CS(=O)(=O)Cc2ccc(F)cc2)N[C@@H](c2ccccc2)C(F)(F)F)CC1 | 86 nM |
| N#CC1(NC(=O)[C@H](CS(=O)(=O)CC2CC2)N[C@@H](c2ccccc2)C(F)(F)F)CC1 | 68 nM |
| CS(=O)(=O)C[C@H](N[C@@H](c1ccccc1)C(F)(F)F)C(=O)NC1(C#N)CC1 | 1040 nM |
| CS(=O)(=O)C[C@H](N[C@@H](c1ccc(F)cc1)C(F)(F)F)C(=O)NC1(C#N)CC1 | 1010 nM |
| N#CC1(NC(=O)[C@H](CS(=O)(=O)Cc2c(F)cccc2F)N[C@@H](c2ccc(F)cc2)C(F)(F)F)CC1 | 249 nM |
| N#CC1(NC(=O)[C@H](CS(=O)(=O)c2nc3ccccc3s2)N[C@@H](c2ccccc2)C(F)(F)F)CC1 | 114 nM |
| CC(C)(c1ccc(F)cc1)S(=O)(=O)C[C@H](N[C@@H](c1ccc(F)cc1)C(F)(F)F)C(=O)NC1(C#N)CC1 | > 10000 nM |
| C[S+]([O-])C[C@H](N[C@@H](c1ccc(F)cc1)C(F)(F)F)C(=O)NC1(C#N)CC1 (stereo partly specified) | > 10000 nM |
| CS(=O)(=O)C[C@H](N[C@@H](c1cccc(F)c1)C(F)(F)F)C(=O)NC1(C#N)CC1 | 911 nM |
| N#CC1(NC(=O)[C@H](CS(=O)(=O)Cc2cccc(F)c2F)N[C@@H](c2ccc(F)cc2)C(F)(F)F)CC1 | 121 nM |
| CC(C)CS(=O)(=O)C[C@H](N[C@@H](c1ccc(F)cc1)C(F)(F)F)C(=O)NC1(C#N)CC1 | 132 nM |
